# TEST_SUMMARY: soluble fraction after stress (log2 fold change); higher = more stays soluble; pooled small domains, quantitative proteomics
# SETUP_CONDITIONS: stress: 50 degC
Assign condition met whenever soluble fraction (log2) does not fall below -0.4; assign condition not met whenever it does.

The following sequences have reported results that may help.
| CONSTRUCT_SEQUENCE | QUALITATIVE_LABEL |
| --- | --- |
| HMNTPLYLKIREQIFDALRSGRWAANDPLPSETKLASEFEVSQGTIRKAIDDLVAQNILYRHQGRGTFIRR | condition not met |
| HMTGAEGKLARYLLTVPSGEPLRLSATDLAKRLGISRASLYRAFQALEDARLIRREGKSMYVLDPAGLEGV | condition met |

q: Is the recorded value of soluble fraction (log2) equal to or greater than -0.4 for this sequence? HMKKTAAKVLGESEGKPVTVQSGRYGPYVQLGSIRATLPKDLEQDDVTLDRALELISAKAERAGK
a: condition met

q: Form field: soluble fraction (log2) at least -0.4? Entry: HMDQINNDLRKLIEFLPEDQKTVLKMRHFQEMSFKEIAKATGVSINTALGRMRYALINLRKLIEENEI
a: condition not met

q: Given HMVINTRHTGFVVDDLERFINFYLGLGLKLISRKVESGEYIDKLVGLKGTKLEWAKLSLPDNSMIEILKYH , state whether its soluble fraction (log2) is at least -0.4.
a: condition met

q: soluble fraction (log2) >= -0.4 for HMGLDMSLEREQHRALREASQWYARLADEQVDSDAERAWRHWVAADEANQRAWQYIEAVSQRFDG ?
a: condition met

q: hey, is soluble fraction (log2) for this one >= -0.4? HMVEVPKVAGMSTAQGVSELEQKGFVVNRTESYDDTVPKGNIISQTPEGGTKVPSGSAVTIKISQGAE
a: condition met

q: Check if soluble fraction (log2) >= -0.4 (inclusive). Item: HMSPSQFRSKSLLVEINFASRQMDGEILQGDYAGKRLSELTEAEVQELTAWLKQSDRESFVLLQAYLLRSG
a: condition not met

====

# TEST_SUMMARY: soluble fraction after stress (log2 fold change); higher = more stays soluble; pooled small domains, quantitative proteomics
# SETUP_CONDITIONS: stress: 50 degC
Entries and their measured soluble fraction (log2) follow.
Kindly provide the number alone.

| CONSTRUCT_SEQUENCE | READOUT_LABEL | RESULT |
| --- | --- | --- |
| HMTVPAGIVLSSIRQDGDVLHIRGTAQSTERLNFFRNSFSASWGSPAQNGKRKADPVTGLVDFTISLK | soluble fraction (log2) | -0.677 |
| HMSDNLTIVRAVYSGLSQRQAAATYHVSRNTVSLLLRHARNRGWLTLEDLAQLDNAAFSKSL | soluble fraction (log2) | -4.13 |
| HMEVPNLIGMTDKDLQRTYFQLPIEAAGDGSVVIKQLPEPGEKVKEGSVIRVLLG | soluble fraction (log2) | 0.171 |

q: Please supply the value of reported soluble fraction (log2) for the item HMASISDRIRLLRAESHMTQEEFGRIFGISKPTVSFYEHGKSVPNDQIKTAIARYFGVSVDYLLGVTD
a: -1.89

====

# TEST_SUMMARY: soluble fraction after stress (log2 fold change); higher = more stays soluble; pooled small domains, quantitative proteomics
# SETUP_CONDITIONS: stress: 50 degC
READOUT_LABEL: soluble fraction (log2)
I only need the number, thanks.

| CONSTRUCT_SEQUENCE | soluble fraction (log2) |
| --- | --- |
| HMHAPIAELKKVFKEEFADQEVTVRQLAGSVLLSGNVKTAELRENLESVAKQFFPRVINNLKLI | -0.000214 |

Now turn to the next sequence.
q: Please give the documented soluble fraction (log2) of HMSVPNVVGRDQVEASSLLESAGFKVSVKQSYSDSVEQGKVISQSPSGSTTVSPGSTVTITVSQ
a: 0.122

====

Attribute: soluble fraction (log2)
# TEST_SUMMARY: soluble fraction after stress (log2 fold change); higher = more stays soluble; pooled small domains, quantitative proteomics
# SETUP_CONDITIONS: stress: 50 degC
// print number alone

The following sequences have reported results that may help.
| CONSTRUCT_SEQUENCE | soluble fraction (log2) |
| --- | --- |
| HMSERQTGTVKWFNNAKGFGFITMADRPDDIFVHFRAIQGDGYRSLNEGEEVEFSLVEGPKGLQAEEVTK | 0.037 |
| HMDDNMNEQWKMILNSIAKKGSVTRQETEKILGIGQTRAHVLLKAMIHAGMIKAVGDGKKRRYVR | -1.01 |
| HMIILYTDEQQRIIDRLNEFIGEQPSQNEAAKLLGISAPILTNLRKGTYTGTVDKFMNKLAAYFNIKADLG | -1.05 |
| HMVSVPDIGEKLPDFTGTPKRLLTPLLNKNDVNIIIKGDGWVVSQKPPAGTPVTKGMTIEFTL | -0.208 |
| HMLHVRSALMSELDGIEGIGEKRKRLLFDAFITRDAIAAATLEQLMAVKGMNRPSAEAVHKHFHG | -0.53 |

q: Provide soluble fraction (log2) value for the following sequence: HMEKSLKELAQGVGQKVLTSGRPYHFDPMSAMERRVVHMTLMEMDGLRTESEGEGRFRHVVVFPA
a: -0.184

q: Indicate the recorded soluble fraction (log2) value for this sequence: HMGGFNATTLQNIEELRRSLSDADQFGRHEVIETIGGSDSRAGKLLKKMLEAGIIEQVKGHGKGRYRFKRT
a: -0.0136

q: Provide only the value of recorded soluble fraction (log2) for HMKDLTIRQQQFLNYIKDHLSLTGFPPTRSDIANEMGFKSPNAAEDHLRALARKGAIEIVPGTSRGIRLP
a: -0.24

====

Reported soluble fraction (log2) values for a set of sequences
# TEST_SUMMARY: soluble fraction after stress (log2 fold change); higher = more stays soluble; pooled small domains, quantitative proteomics
# SETUP_CONDITIONS: stress: 50 degC
// print number alone

Previously resolved entries follow.
| CONSTRUCT_SEQUENCE | RESULT |
| --- | --- |
| HMAAVAPPVLERIASDLATRFAGTLSPETVDRYVRESYHLLAERAGITRYLPSLTARFAGDRLDA | 0.0481 |
| HMKTDLQIQQDVMAELKWEPKVNAAHIGVEVKHGVVTLSGHVDSFAEKWNAEQAAKRVAGVKFIAIELDV | -1.67 |
| HMPHFGVVLQMDDWKTLRDRLEARDDIDWVMKPNLRFEGQPGEQATLFIRDPSGNALEFKGFADLSQVF | -0.348 |
| HMEKTEQMQVILDYIARYGEINNEKVQEILGVKRTRAYTILKQMVENGFVTTNGRGEEKKYYSIR | -0.336 |
| HMTFPAILRELLEKHPQTGKRTTLKELGEAVGTRQQSISLYRNGDTQPSPDILVRIAAFFGVSVDYLL | -0.419 |

q: Name the recorded soluble fraction (log2) of the sequence listed here: HMVSVEELLSSLDPNEATVLKLLAERSSGVDELMERSGLDFSALSEAITNLELFGYIAREMDGVYSFS
a: -0.559

q: Provide measured soluble fraction (log2) value, entry: HMLEVTQTDVKMYTTSGTPVYAAPDLNSAIVVYLERFVNVTVTGITDNGFYRVNLNGDYYIPGPYLISSV
a: -0.369

====

# TEST_SUMMARY: soluble fraction after stress (log2 fold change); higher = more stays soluble; pooled small domains, quantitative proteomics
# SETUP_CONDITIONS: stress: 50 degC
// soluble fraction (log2) lookup, one value per entry
Just the number, please, no unit after it.

q: Entry HMTTIAQMTGPQRAAVILLVLGEDHGRTIWQEFDDDEIRIITRAMAELGTVDADEVERLMLDFVGKLSS needs its soluble fraction (log2) filled in; supply it.
a: -2.58

====

# TEST_SUMMARY: soluble fraction after stress (log2 fold change); higher = more stays soluble; pooled small domains, quantitative proteomics
# SETUP_CONDITIONS: stress: 50 degC
Assign a class from recorded soluble fraction (log2); defined classes: class 1: < -0.6; class 2: ≥ -0.6 and < 0.04; class 3: ≥ 0.04

Answered examples (2):
| CONSTRUCT_SEQUENCE | QUALITATIVE_LABEL |
| --- | --- |
| HMDDNRSLSDLAQQVFKRENIQVSRDTLSLLVSRLGSDRAVSRQEIEKLALFAGSNGKLTEEDIHNALG | class 3 |
| HMNIMNINQALNVLNLKGTVSKEELAKAYKKMAIKYHPDRNPTGVEMMKVINSAYEFLKGLNLEEIKH | class 3 |

q: Input HMRSLATFEEEKIALRFWNYLQSEGIKSTLEEEGPRDWVIWVIDEEKIPSATQSLEKFNLNPDDPAFSN ; output its category
a: class 2

q: Input HMQNYLEVLRLHELGMGQRKIAQQVHTSRDTIRKIIAIAENQGLNYSNLIGKTDNELSKVFG ; output its category
a: class 2

q: Pick a category. Item: HMFIVTDQMQRVLDYITEKEKATNNDLEELLGVKSTRIYTITRKLIQHNLIIPVGKGKNKYYIL
a: class 1

q: GET /class?item= HMITETIGANIKTLRDKFRMSQQDLASKMNTARPVISNWENGKTEPSSSQLLKLAKIFDTSTDKILGNV
a: class 3
